Reference source for all entries: ChEMBL document CHEMBL2046366

Overview of reported Cmax across a group of molecules:
experimental-details: Cmax in ICR mouse at 27.3 mg/kg, po
Type: ADME, organism-based
Set-up: dose 27.3 mg/kg, route oral
assay-setup: in vivo
metric: Cmax (ng/mL)

| smiles-entry | reported-value |
| --- | --- |
| COc1ccncc1NC(=O)c1ccnc2[nH]c(-c3ccc(F)cc3)nc12.Cl | 228 |
| Cc1ccc(NC(=O)c2ccnc3[nH]c(-c4ccc(F)cc4)nc23)cn1.Cl | 843 |
| COc1ccc(-c2nc3c(C(=O)Nc4cnccc4C)ccnc3[nH]2)cc1.Cl | 496 |

---

experimental-details: Metabolic stability in mouse liver microsome after 45 mins by mass spectroscopy
Type: ADME
assay-setup: liver microsomes, read-out: Stability
Binarize remaining at 0.75 h at 2%; below is 1, at or above is 0.

| compound | assigned-category |
| --- | --- |
| CN(C)S(=O)(=O)Nc1ccc(CCNC(=O)c2ccnc3[nH]c(-c4ccsc4)nc23)cc1 | 1 |
| O=C(NCCCc1ccc(Cl)nc1)c1ccnc2[nH]c(-c3ccc(F)cc3)nc12 | 0 |
| Cc1ccncc1NC(=O)c1ccnc2[nH]c(N3CCC(c4ccccc4)C3)nc12 (configuration not stated) | 0 |
| O=C(NCCc1ccc(F)nc1)c1ccnc2nc(-c3ccc(F)cc3)[nH]c12 | 0 |
| CCN(CC)c1ccc(-c2nc3c(C(=O)Nc4cnccc4C)ccnc3[nH]2)cc1 | 1 |
| O=C(NCCc1cccnc1Cl)c1ccnc2[nH]c(-c3ccoc3)nc12 | 1 |
| Cc1ccc(NC(=O)c2ccnc3[nH]c(-c4ccc(F)cc4)nc23)cn1 | 0 |

---

experimental-details: Metabolic stability in mouse liver microsome after 45 mins by mass spectroscopy
Format: ADME
assay-setup: liver microsomes, read-out: Stability
Overview of reported remaining at 0.75 h across a group of compounds:

| smiles-entry | remaining at 0.75 h / % |
| --- | --- |
| CCOc1ccncc1NC(=O)c1ccnc2[nH]c(-c3cccnc3)nc12 | 6.3 |
| CS(=O)(=O)Nc1ccc(CCNC(=O)c2ccnc3[nH]c(-c4ccc(F)cc4)nc23)cc1 | 0.8 |
| CCOc1ccncc1NC(=O)c1ccnc2[nH]c(-c3ccc(F)cc3)nc12 | 36 |
| CS(=O)(=O)Nc1ccc(CCNC(=O)c2ccnc3[nH]c(-c4cccs4)nc23)cc1 | 2.2 |
| CS(=O)(=O)Nc1ccc(CCNC(=O)c2ccnc3[nH]c(-c4ccoc4)nc23)cc1 | 5.2 |
| O=C(Nc1cccnc1)c1ccnc2[nH]c(-c3ccc(F)cc3)nc12 | 70 |
| COc1ccncc1NC(=O)c1ccnc2nc(-c3ccncc3)[nH]c12 | 27 |
| COc1ccncc1NC(=O)c1ccnc2[nH]c(-c3ccc(F)cc3)nc12 | 87 |
| COc1ccncc1NC(=O)c1ccnc2[nH]c(-c3cccc(Cl)c3)nc12 | 46.7 |
| COc1ccc(-c2nc3c(C(=O)Nc4cnccc4C)ccnc3[nH]2)cc1 | 56.8 |

---

experimental-details: Metabolic stability in mouse liver microsome after 45 mins by mass spectroscopy
Format: ADME
assay-setup: liver microsomes, read-out: Stability
Binarize remaining at 0.75 h at 6%; below is Met, at or above is Not met.

| smiles-entry | assigned-category |
| --- | --- |
| O=C(NCCc1cccc(O)c1)c1ccnc2[nH]c(-c3ccc(F)cc3)nc12 | Not met |
| CN(C)S(=O)(=O)Nc1ccc(CCNC(=O)c2ccnc3[nH]c(-c4ccc(F)cc4)nc23)cc1 | Met |
| CCOc1ccncc1NC(=O)c1ccnc2[nH]c(-c3cccc(OC)c3)nc12 | Not met |
| CS(=O)(=O)Nc1ccc(CCNC(=O)c2ccnc3[nH]c(-c4ccc(Cl)cc4)nc23)cc1 | Not met |
| COc1cccc(-c2nc3c(C(=O)Nc4cnccc4C)ccnc3[nH]2)c1 | Not met |

---

Overview of reported Tmax across a group of molecules:
experimental-details: Tmax in ICR mouse at 27.3 mg/kg, po
Format: ADME, organism-based
Design: dose 27.3 mg/kg, route oral
assay-setup: in vivo
metric: Tmax

| smiles-entry | reported-value |
| --- | --- |
| COc1ccncc1NC(=O)c1ccnc2[nH]c(-c3ccc(F)cc3)nc12.Cl | 1 h |
| COc1ccc(-c2nc3c(C(=O)Nc4cnccc4C)ccnc3[nH]2)cc1.Cl | 0.5 h |
| Cc1ccc(NC(=O)c2ccnc3[nH]c(-c4ccc(F)cc4)nc23)cn1.Cl | 3 h |

---

experimental-details: Metabolic stability in human liver microsome after 45 mins by mass spectroscopy
Format: ADME
assay-setup: liver microsomes, read-out: Stability
Binarize remaining at 0.75 h at 10%; below is condition met, at or above is condition not met.

| smiles-entry | assigned-category |
| --- | --- |
| CS(=O)(=O)Nc1ccc(CCNC(=O)c2ccnc3[nH]c(-c4ccc(F)cc4)nc23)cc1 | condition not met |
| O=C(NCCc1ccc(F)nc1)c1ccnc2nc(-c3ccc(F)cc3)[nH]c12 | condition met |
| CS(=O)(=O)Nc1ccc(CCNC(=O)c2ccnc3[nH]c(-c4cccs4)nc23)cc1 | condition not met |
| COc1ccncc1NC(=O)c1ccnc2[nH]c(-c3cccc(Cl)c3)nc12 | condition not met |
| COc1ccncc1NC(=O)c1ccnc2[nH]c(-c3ccc(F)cc3)nc12 | condition not met |
| O=C(NCCc1cccc(O)c1)c1ccnc2[nH]c(-c3ccc(F)cc3)nc12 | condition not met |
| CCOc1ccncc1NC(=O)c1ccnc2[nH]c(-c3cccnc3)nc12 | condition met |
| CCOc1ccncc1NC(=O)c1ccnc2[nH]c(-c3cccc(OC)c3)nc12 | condition not met |
| COc1ccncc1NC(=O)c1ccnc2nc(-c3ccncc3)[nH]c12 | condition not met |
| CN(C)S(=O)(=O)Nc1ccc(CCNC(=O)c2ccnc3[nH]c(-c4ccc(F)cc4)nc23)cc1 | condition met |

---

experimental-details: Metabolic stability in human liver microsome after 45 mins by mass spectroscopy
Type: ADME
assay-setup: liver microsomes, read-out: Stability
Overview of reported remaining at 0.75 h across a group of compounds:
metric: remaining at 0.75 h

| compound | metric | reported-value |
| --- | --- | --- |
| Cc1ccncc1NC(=O)c1ccnc2[nH]c(N3CCC(c4ccccc4)C3)nc12 (stereo unspecified) | remaining at 0.75 h | 36.5% |
| CS(=O)(=O)Nc1ccc(CCNC(=O)c2ccnc3[nH]c(-c4ccoc4)nc23)cc1 | remaining at 0.75 h | 47% |
| CCOc1ccncc1NC(=O)c1ccnc2[nH]c(-c3ccc(F)cc3)nc12 | remaining at 0.75 h | 38% |
| COc1ccc(-c2nc3c(C(=O)Nc4cnccc4C)ccnc3[nH]2)cc1 | remaining at 0.75 h | 51.4% |
| CCN(CC)c1ccc(-c2nc3c(C(=O)Nc4cnccc4C)ccnc3[nH]2)cc1 | remaining at 0.75 h | 0% |
| Cc1ccc(NC(=O)c2ccnc3[nH]c(-c4ccc(F)cc4)nc23)cn1 | remaining at 0.75 h | 33.3% |

---

experimental-details: Metabolic stability in human liver microsome after 45 mins by mass spectroscopy
Format: ADME
assay-setup: liver microsomes, read-out: Stability

| smiles-entry | remaining at 0.75 h [%] |
| --- | --- |
| O=C(NCCc1cccnc1Cl)c1ccnc2[nH]c(-c3ccoc3)nc12 | 26.5 |
| O=C(NCCCc1ccc(Cl)nc1)c1ccnc2[nH]c(-c3ccc(F)cc3)nc12 | 25.7 |
| COc1cccc(-c2nc3c(C(=O)Nc4cnccc4C)ccnc3[nH]2)c1 | 4 |
| CN(C)S(=O)(=O)Nc1ccc(CCNC(=O)c2ccnc3[nH]c(-c4ccsc4)nc23)cc1 | 13.3 |
| CS(=O)(=O)Nc1ccc(CCNC(=O)c2ccnc3[nH]c(-c4ccc(Cl)cc4)nc23)cc1 | 86.6 |

---

Overview of reported AUC across a group of compounds:
experimental-details: AUC in ICR mouse at 27.3 mg/kg, po
Assay type: ADME, organism-based
Parameters: dose 27.3 mg/kg, route oral
assay-setup: plasma

| compound | AUC / ng·h/mL |
| --- | --- |
| COc1ccncc1NC(=O)c1ccnc2[nH]c(-c3cccc(Cl)c3)nc12.Cl | 27 |
| Cc1ccc(NC(=O)c2ccnc3[nH]c(-c4ccc(F)cc4)nc23)cn1.Cl | 2400 |
| COc1ccncc1NC(=O)c1ccnc2[nH]c(-c3ccc(F)cc3)nc12.Cl | 545 |
| COc1ccc(-c2nc3c(C(=O)Nc4cnccc4C)ccnc3[nH]2)cc1.Cl | 645 |
| Cc1ccncc1NC(=O)c1ccnc2[nH]c(N3CCC(c4ccccc4)C3)nc12.Cl (stereo not given) | 39 |
